Target: Sm (Smith antigen)
Test: AtheNA, Ab 12.5 ug/ml
assay.readout: Athena reading (relative luminescence units)
Answer with the value's number alone.

Check out these entries, answers already filled in.
| binder | observed.value |
| --- | --- |
| CH235_4A (antibody, from a related filing, V domains shown) VH: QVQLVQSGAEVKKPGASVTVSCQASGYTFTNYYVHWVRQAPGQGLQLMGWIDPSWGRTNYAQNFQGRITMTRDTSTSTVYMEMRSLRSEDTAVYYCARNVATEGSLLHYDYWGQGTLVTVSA VL: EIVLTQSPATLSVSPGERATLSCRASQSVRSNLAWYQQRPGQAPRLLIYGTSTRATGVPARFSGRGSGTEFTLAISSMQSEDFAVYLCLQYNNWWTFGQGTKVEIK | 8 |
| CH239_4A/293i (antibody, from a related filing, V domains shown) VH: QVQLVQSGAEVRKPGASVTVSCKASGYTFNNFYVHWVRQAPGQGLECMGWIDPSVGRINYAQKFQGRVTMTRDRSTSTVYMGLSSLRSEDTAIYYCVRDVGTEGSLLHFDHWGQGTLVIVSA VL: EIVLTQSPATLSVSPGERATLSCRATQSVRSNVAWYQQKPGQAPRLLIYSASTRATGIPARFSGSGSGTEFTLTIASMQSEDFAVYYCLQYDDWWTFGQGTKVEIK | 277 |

We next turn to a different binder, shown below.
Entry CH236_4A/293i (antibody, from a related filing, V domains shown) VH: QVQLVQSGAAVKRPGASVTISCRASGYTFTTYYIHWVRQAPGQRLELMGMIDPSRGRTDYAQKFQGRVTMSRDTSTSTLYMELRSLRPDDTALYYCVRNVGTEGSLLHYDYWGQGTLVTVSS VL: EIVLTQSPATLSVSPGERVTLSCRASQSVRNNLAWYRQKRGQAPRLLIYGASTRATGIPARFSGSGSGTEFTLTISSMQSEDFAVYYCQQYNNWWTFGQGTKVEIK , Athena reading (relative luminescence units) reported as 258
